# Test system: Blumeria graminis f. sp. tritici
# assay overview: Test I: wheat powdery mildew, preventive spray on wheat seedlings, visual disease rating
# reported conditions: wheat powdery mildew; 100 = 100% disease control, 0 = no disease control relative to the controls

molecule	experimental target	Test I rating (disease control)
COc1ccc(Nc2c(-c3ccc(F)cc3Cl)c(C)nn2C)c(Cl)c1 [compound 101]	Blumeria graminis f. sp. tritici	100%
Cc1nn(C)c(Nc2c(Cl)cc(F)cc2Cl)c1-c1c(Cl)cccc1Cl [compound 115]	Blumeria graminis f. sp. tritici	93%
CCOc1cc(F)c(-c2c(C)nn(C)c2Nc2ccc(F)cc2F)c(F)c1 [compound 39]	Blumeria graminis f. sp. tritici	100%
Cc1nn(C)c(Oc2c(F)cc(C#N)cc2F)c1-c1ccccc1Br [compound 76]	Blumeria graminis f. sp. tritici	99%
Cc1nn(C)c(Nc2c(F)cc(C#N)cc2F)c1-c1ccc(F)cc1F [compound 83]	Blumeria graminis f. sp. tritici	100%
Cc1nn(C)c(Nc2c(Cl)cc(Br)cc2Cl)c1-c1ccc(F)cc1F [compound 155]	Blumeria graminis f. sp. tritici	99%
Cc1nn(C)c(Nc2ccc(Br)cc2Cl)c1-c1ccc(F)cc1Br [compound 173]	Blumeria graminis f. sp. tritici	99%
COc1ccc(-c2c(C)nn(C)c2Nc2c(F)cc(F)cc2F)c(Cl)c1 [compound 29]	Blumeria graminis f. sp. tritici	100%
COc1ccc(-c2c(C)nn(C)c2Nc2c(F)cccc2F)c(Cl)c1 [compound 43]	Blumeria graminis f. sp. tritici	98%

###

# Tested on: Puccinia recondita f. sp. tritici
# assay overview: Test H: wheat leaf rust, preventive spray on wheat seedlings, visual disease rating
# reported conditions: wheat leaf rust, sprayed the day before inoculation; 100 = 100% disease control, 0 = no disease control
Examples of molecules with documented Test H rating (disease control) follow.

smiles entry	Test H rating (disease control)
Cc1nn(C)c(Nc2ccc(F)cc2Cl)c1-c1ccc(Cl)cc1Cl	98%
Cc1nn(C)c(Oc2ccc(C#N)cc2F)c1-c1c(F)cc(F)cc1F	99%
COc1cc(F)c(-c2c(C)nn(C)c2Oc2ccc(Cl)cc2Cl)c(F)c1	99%
COc1ccc(Nc2c(-c3c(F)cccc3F)c(C)nn2C)c(Cl)c1	97%
Cc1nn(C)c(Nc2c(Cl)cc(F)cc2Cl)c1-c1ccc(Cl)cc1Cl	96%

###

# Test system: Botrytis cinerea
# assay overview: Test A: tomato Botrytis, preventive spray on tomato seedlings, visual disease rating
# reported conditions: tomato Botrytis; 100 = 100% disease control, 0 = no disease control relative to the controls

compound	experimental target	Test A rating (disease control) / %
COc1cc(F)c(Nc2c(-c3c(F)cc(F)cc3F)c(C)nn2C)c(F)c1 [compound 19]	Botrytis cinerea	99
COc1ccc(-c2c(C)nn(C)c2Oc2ccc(C#N)cc2F)c(Cl)c1 [compound 92]	Botrytis cinerea	100
Cc1nn(C)c(Oc2c(F)cc(C#N)cc2F)c1-c1ccccc1Cl [compound 75]	Botrytis cinerea	100
Cc1nn(C)c(Nc2c(Cl)cc(Br)cc2Cl)c1-c1ccc(F)cc1Cl [compound 164]	Botrytis cinerea	99
Cc1nn(C)c(Nc2ccc(C#N)cc2F)c1-c1c(F)cc(F)cc1F [compound 34]	Botrytis cinerea	100
COc1ccc(-c2c(C)nn(C)c2Oc2c(F)cc(C#N)cc2F)c(Cl)c1 [compound 41]	Botrytis cinerea	100
Cc1nn(C)c(Oc2ccc(C#N)cc2F)c1-c1c(F)cccc1Cl [compound 116]	Botrytis cinerea	100
Cc1nn(C)c(Nc2c(Cl)cc(F)cc2Cl)c1-c1ccc(F)cc1Br [compound 98]	Botrytis cinerea	99
Cc1nn(C)c(Oc2ccc(Cl)cc2Cl)c1-c1c(F)cc(F)cc1F [compound 9]	Botrytis cinerea	99

###

# Tested on: Septoria tritici
# assay overview: Test M (M1-M5): wheat leaf blotch, Compound 81 alone and in mixtures, observed and Colby expected control
# Assay type: in vivo
# reported conditions: component (b) 0.4 ppm alone
recorded endpoint: Test M2 Obsd, disease control rating (%)

compound	measurement units	value measured
CC(C1CC1)C(O)(Cn1cncn1)c1ccc(Cl)cc1 (centres unmarked)	%	0
CC1CCN(c2c(-c3c(F)cc(F)cc3F)c(Cl)nc3ncnn23)CC1	%	93
CC(C)CC(C)c1sccc1NC(=O)c1cn(C)nc1C(F)(F)F (centres unmarked)	%	0
CC(C)C1C2CCC1c1c(NC(=O)c3cn(C)nc3C(F)F)cccc12 (centres unmarked)	%	77
Cn1cc(C(=O)Nc2ccc(F)cc2-c2ccc(Cl)c(Cl)c2)c(C(F)F)n1	%	33

###

Overview of reported Test I rating (disease control) across a group of molecules:
# Test system: Blumeria graminis f. sp. tritici
# assay overview: Test I: wheat powdery mildew, preventive spray on wheat seedlings, visual disease rating
# reported conditions: wheat powdery mildew; 100 = 100% disease control, 0 = no disease control relative to the controls

molecule	Test I rating (disease control), %
Cc1nn(C)c(Nc2c(Cl)cc(Br)cc2Cl)c1-c1ccc(F)cc1Br [compound 168]	48
Cc1nn(C)c(Oc2ccc(C#N)cc2Cl)c1-c1ccc(Cl)cc1Cl [compound 131]	96
Cc1nn(C)c(C(O)c2c(F)cc(F)cc2F)c1-c1ccc(F)cc1Cl (racemic) [compound 178]	74
Cc1nn(C)c(Nc2ccccc2F)c1-c1ccc(F)cc1Cl [compound 1]	100
Cc1nn(C)c(Nc2ccc(F)cc2F)c1-c1ccc(F)cc1Cl [compound 2]	99
Cc1nn(C)c(Nc2ccc(F)cc2F)c1-c1c(F)cc(C#N)cc1F [compound 30]	100
COc1cc(F)c(-c2c(C)nn(C)c2Oc2c(F)cc(Br)cc2F)c(F)c1 [compound 24]	100
COc1ccc(-c2c(C)nn(C)c2Oc2c(F)cc(C#N)cc2F)c(F)c1 [compound 14]	99
COc1cc(F)c(-c2c(C)nn(C)c2Nc2ccc(C#N)cc2Cl)c(F)c1 [compound 32]	97

###

# Test system: Blumeria graminis f. sp. tritici
# assay overview: Test I: wheat powdery mildew, preventive spray on wheat seedlings, visual disease rating
# reported conditions: wheat powdery mildew; 100 = 100% disease control, 0 = no disease control relative to the controls
Catalogue of Test I rating (disease control) values

smiles entry	measurement units	Test I rating (disease control)
Cc1nn(C)c(Oc2ccc(C#N)cc2Cl)c1-c1c(F)cc(F)cc1F	%	99
Cc1nn(C)c(Nc2ccc(F)cc2Cl)c1-c1c(Cl)cccc1Cl	%	100
COc1cc(F)c(Nc2c(-c3c(F)cc(OC)cc3F)c(C)nn2C)c(F)c1	%	94
Cc1nn(C)c(Nc2ccc(Br)cc2F)c1-c1ccc(F)cc1F	%	99
Cc1nn(C)c(Nc2ccc(Cl)cc2Cl)c1-c1c(F)cccc1Cl	%	100
Cc1nn(C)c(Nc2ccc(F)cc2Cl)c1-c1ccc(C#N)cc1Cl	%	99
Cc1nn(C)c(Nc2c(F)cc(F)cc2F)c1-c1ccccc1F	%	99
COc1ccc(-c2c(C)nn(C)c2Oc2c(F)cc(C#N)cc2F)c(Cl)c1	%	99
COc1ccc(-c2c(C)nn(C)c2Nc2ccc(F)cc2F)c(Cl)c1	%	100

###

# System: Puccinia recondita f. sp. tritici
# assay overview: Test H: wheat leaf rust, preventive spray on wheat seedlings, visual disease rating
# reported conditions: wheat leaf rust, preventive; rating marked with asterisk (*), not explained in the text shown
Marks after values point to notes of the source that are not given here.
Parameter: Test H rating (disease control), value marked *. Scope: all listed entries.
recorded endpoint: Test H rating (disease control), value marked *

smiles entry	value measured
Cc1nn(C)c(Oc2ccc(Cl)cc2F)c1-c1ccc(F)cc1Cl	98* %
Cc1nn(C)c(Oc2c(F)cc(C#N)cc2F)c1-c1c(F)cc(F)cc1F	79* %
Cc1nn(C)c(Nc2c(F)cc(Br)cc2F)c1-c1ccc(F)cc1Br	100* %
Cc1nn(C)c(Oc2ccc(C#N)cc2F)c1-c1ccc(F)cc1F	98* %

###

Test I rating (disease control) values for the compounds below.
# System: Blumeria graminis f. sp. tritici
# assay overview: Test I: wheat powdery mildew, preventive spray on wheat seedlings, visual disease rating
# reported conditions: wheat powdery mildew; 100 = 100% disease control, 0 = no disease control relative to the controls
recorded endpoint: Test I rating (disease control) (%)

compound	recorded endpoint	value measured
COc1ccc(-c2c(C)nn(C)c2Oc2ccc(C#N)cc2F)c(Cl)c1	Test I rating (disease control)	96
COc1ccc(Nc2c(-c3ccc(F)cc3F)c(C)nn2C)c(F)c1	Test I rating (disease control)	99
Cc1nn(C)c(Nc2c(F)cccc2F)c1-c1ccc(F)cc1F	Test I rating (disease control)	100
COc1cc(F)c(Nc2c(-c3ccc(Cl)cc3Cl)c(C)nn2C)c(F)c1	Test I rating (disease control)	99
COc1cc(F)c(-c2c(C)nn(C)c2C(O)c2ccc(F)cc2F)c(F)c1 (stereo not drawn)	Test I rating (disease control)	99
COc1cc(F)c(Nc2c(-c3c(F)cccc3Cl)c(C)nn2C)c(F)c1	Test I rating (disease control)	99
Cc1nn(C)c(Nc2ccc(Cl)cc2F)c1-c1c(F)cccc1F	Test I rating (disease control)	100
Cc1nn(C)c(Oc2ccc(Cl)cc2Cl)c1-c1c(F)cc(F)cc1F	Test I rating (disease control)	99
Cc1nn(C)c(Oc2ccc(C#N)cc2F)c1-c1c(F)cccc1Cl	Test I rating (disease control)	100
